Here the recorded pIC50 is given for each entry.
Assay: DPPH radical scavenging activity
Conditions: DPPH 0.1 mM in ethanol, 30 min at room temperature in the dark, absorbance at 517 nm, triplicates; read-out: DPPH Free Radical Scavenging Activity (IC50)
Scale: negative log10 of molar concentration, which is what pIC50 denotes.

Answered cases to consult:
- MOLECULE: "COc1cc(O)cc(-c2cc(O)c(O)cc2C)c1"
  MEASURED_NUMBER: 4.00
- MOLECULE: "COc1cc(O)c(C(=O)O)c(-c2cc(O)c(O)cc2C)c1"
  MEASURED_NUMBER: 4.97

Turning now to a further molecule:
Req: So what's the measured pIC50 for this one? Cc1cc(C(C)(C)C)c(O)c(C(C)(C)C)c1 [BHT, butylated hydroxytoluene, reference compound]
Resp: 3.77
